target: Env of the clade G HIV-1 pseudoviruses of the cross-clade 162-pseudovirus panel (n = 15); assay: cell-based or functional assay
Quick reference for Median IC50 against viruses neutralized with an IC50 <50 µg/ml among some binders
Could you give me the number in µg/mL? Just the number is fine.

PGT-126 (antibody, V domains shown) VH: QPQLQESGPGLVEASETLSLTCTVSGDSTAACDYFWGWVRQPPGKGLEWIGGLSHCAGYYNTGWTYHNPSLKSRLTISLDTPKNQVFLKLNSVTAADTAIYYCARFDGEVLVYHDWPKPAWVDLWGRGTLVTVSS VL: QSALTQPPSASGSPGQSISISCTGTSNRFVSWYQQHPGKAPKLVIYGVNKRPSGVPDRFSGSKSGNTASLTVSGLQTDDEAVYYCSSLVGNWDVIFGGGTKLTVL ... 0.18
PGT-136 (antibody, V domains shown) VH: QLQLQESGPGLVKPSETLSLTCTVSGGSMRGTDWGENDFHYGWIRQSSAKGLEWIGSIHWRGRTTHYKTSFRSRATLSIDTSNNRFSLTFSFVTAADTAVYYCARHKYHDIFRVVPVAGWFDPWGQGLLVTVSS VL: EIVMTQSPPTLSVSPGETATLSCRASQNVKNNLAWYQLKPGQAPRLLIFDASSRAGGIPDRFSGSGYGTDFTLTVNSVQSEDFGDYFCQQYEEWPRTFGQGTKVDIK ... 18.9
PGT-137 (antibody, V domains shown) VH: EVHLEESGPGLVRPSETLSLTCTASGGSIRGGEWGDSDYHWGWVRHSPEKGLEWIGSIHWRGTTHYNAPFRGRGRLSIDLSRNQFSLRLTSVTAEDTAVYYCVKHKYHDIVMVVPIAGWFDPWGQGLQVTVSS VL: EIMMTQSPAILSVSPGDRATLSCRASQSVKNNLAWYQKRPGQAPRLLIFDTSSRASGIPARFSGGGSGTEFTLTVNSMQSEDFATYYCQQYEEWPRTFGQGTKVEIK ... 0.23
PGT-131 (antibody, V domains shown) VH: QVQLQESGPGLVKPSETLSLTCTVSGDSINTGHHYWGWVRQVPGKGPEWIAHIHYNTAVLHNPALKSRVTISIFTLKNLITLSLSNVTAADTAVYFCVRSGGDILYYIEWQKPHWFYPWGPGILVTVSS VL: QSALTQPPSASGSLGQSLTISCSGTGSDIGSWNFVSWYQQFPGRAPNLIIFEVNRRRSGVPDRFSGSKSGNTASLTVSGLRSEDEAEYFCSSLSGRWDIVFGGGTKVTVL ... 3.54

GET /value?item= PGT-130 (antibody, V domains shown) VH: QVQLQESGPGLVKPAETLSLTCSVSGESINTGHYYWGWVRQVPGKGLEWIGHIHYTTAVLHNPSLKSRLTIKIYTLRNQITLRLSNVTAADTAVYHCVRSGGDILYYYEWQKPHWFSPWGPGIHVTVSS VL: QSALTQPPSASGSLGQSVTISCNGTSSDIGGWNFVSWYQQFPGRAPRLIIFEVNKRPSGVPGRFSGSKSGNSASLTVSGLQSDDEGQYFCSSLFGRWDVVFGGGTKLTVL &field=Median IC50 against viruses neutralized with an IC50 <50 µg/ml returns 4.14

# Median IC50 against viruses neutralized with an IC50 <50 µg/ml of PGT-135 (antibody, V domains shown) VH: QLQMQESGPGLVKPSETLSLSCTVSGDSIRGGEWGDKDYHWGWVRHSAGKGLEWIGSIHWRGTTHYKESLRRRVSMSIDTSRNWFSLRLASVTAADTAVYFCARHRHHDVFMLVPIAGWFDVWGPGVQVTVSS VL: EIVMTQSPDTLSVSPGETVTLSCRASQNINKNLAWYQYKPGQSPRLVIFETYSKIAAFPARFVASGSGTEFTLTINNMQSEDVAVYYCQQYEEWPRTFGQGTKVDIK = 0.14

# binder PGT-128 (antibody, V domains shown) VH: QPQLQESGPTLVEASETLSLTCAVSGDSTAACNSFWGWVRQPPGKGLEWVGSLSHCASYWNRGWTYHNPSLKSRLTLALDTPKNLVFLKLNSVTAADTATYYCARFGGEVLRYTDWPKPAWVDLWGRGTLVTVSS VL: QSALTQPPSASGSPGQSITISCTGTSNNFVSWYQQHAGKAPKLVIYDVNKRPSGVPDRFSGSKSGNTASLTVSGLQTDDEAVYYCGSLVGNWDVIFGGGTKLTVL ; its Median IC50 against viruses neutralized with an IC50 <50 µg/ml = 0.04
